Assay: Kinetic solubility of the compound incubated for 60 mins under shaking condition by UV-Vis spectroscopic analysis
Type: physicochemical
Conditions: 1 h
Non-standard residues stand in square brackets, D forms with d. Residues, ends and D or L forms follow the SMILES beside them. *: point of attachment. X2 = O=C(NCCCCCCN*)c1cccc2sc(N3CCOCC3)nc12; Dip = N[C@H](C(=O)O)C(c1ccccc1)c1ccccc1; Chg = N[C@H](C(=O)O)C1CCCCC1; NMeA = CN[C@@H](C)C(=O)O
reportedProperty: log(Kinetic_solubility)

{"columns": ["compound", "log(Kinetic_solubility)"],
 "data": [
  ["Cn1c(=O)n(C)c2cc(CNCCCNCC3CCN(c4ccc(C(=O)N[C@H]5CC[C@H](Oc6ccc(C#N)c(Cl)c6)CC5)nn4)CC3)ccc21", -4.28],
  ["Cc1ncsc1-c1ccc([C@H](C)NC(=O)[C@@H]2C[C@@H](O)CN2C(=O)[C@@H](NC(=O)COCCOCCNC(=O)COc2c(-c3csc(N4CCOCC4)n3)ccc(F)c2F)C(C)(C)C)cc1", -4.47],
  ["O=C(COc1c(-c2csc(N3CCOCC3)n2)ccc(F)c1F)NCCOCCOCCOCCOCCNc1cccc2c1C(=O)N(C1CCC(=O)NC1=O)C2=O (stereo not given)", -4.28],
  ["O=C1CCC(N2C(=O)c3cccc(NCCOCCOCC(=O)N4CCN(C(=O)c5cc(Cc6n[nH]c(=O)c7ccccc67)ccc5F)CC4)c3C2=O)C(=O)N1 (stereo not given)", -4.16],
  ["CN[C@@H](C)C(=O)N[C@H](C(=O)N1CCC[C@H]1C(=O)N[C@H](C(=O)NCCCCCCNC(=O)c1cccc2sc(N3CCOCC3)nc12)C(c1ccccc1)c1ccccc1)C1CCCCC1 (H-[NMeA][Chg]P[Dip]-X2)", -4.66],
  ["Cc1sc2c(c1C)C(c1ccc(Cl)cc1)=N[C@@H](CC(=O)NCCCN1CCN(CCCNc3cccc4c3C(=O)N(C3CCC(=O)NC3=O)C4=O)CC1)c1nnc(C)n1-2 (stereo not given in full)", -4.15],
  ["Cn1c(=O)n(C)c2cc(CNCCOCCNCC3CCN(c4ccc(C(=O)N[C@H]5CC[C@H](Oc6ccc(C#N)c(Cl)c6)CC5)nn4)CC3)ccc21", -3.69],
  ["Cc1ncsc1-c1ccc([C@H](C)NC(=O)[C@@H]2C[C@@H](O)CN2C(=O)[C@@H](NC(=O)CCCCn2cc(CN3CCN(C(=O)C[C@@H]4N=C(c5ccc(Cl)cc5)c5c(sc(C)c5C)-n5c(C)nnc54)CC3)nn2)C(C)(C)C)cc1", -4.54],
  ["Cc1ncsc1-c1ccc([C@H](C)NC(=O)[C@@H]2C[C@@H](O)CN2C(=O)[C@@H](NC(=O)COCCOCCOCC(=O)N[C@H](C(=O)N2C[C@H](O)C[C@H]2C(=O)N[C@@H](C)c2ccc(-c3scnc3C)cc2)C(C)(C)C)C(C)(C)C)cc1", -4.21],
  ["Cc1ncsc1-c1ccc([C@H](C)NC(=O)[C@@H]2C[C@@H](O)CN2C(=O)[C@@H](NC(=O)CCCCNC(=O)COc2c(-c3csc(N4CCOCC4)n3)ccc(F)c2F)C(C)(C)C)cc1", -4.72]
]}

====

Test: Distribution coefficient, logD of compound in n-Octanol/PBS at pH 7.4 incubated for 30 mins under shaking condition by UHPLC-MS analysis
Assay type: physicochemical
reportedProperty: logD at 0.5 h

Here is how some molecules turned out for logD at 0.5 h.
{"columns": ["moleculeSmiles", "reportedProperty", "recordedValue"],
 "data": [
  ["Cc1ncsc1-c1ccc([C@H](C)NC(=O)[C@@H]2C[C@@H](O)CN2C(=O)[C@@H](NC(=O)CCCCNC(=O)COc2c(-c3csc(N4CCOCC4)n3)ccc(F)c2F)C(C)(C)C)cc1", "logD at 0.5 h", 4.98],
  ["Cn1c(=O)n(C)c2cc(CNCCCNCC3CCN(c4ccc(C(=O)N[C@H]5CC[C@H](Oc6ccc(C#N)c(Cl)c6)CC5)nn4)CC3)ccc21", "logD at 0.5 h", 4.43],
  ["Cc1ccc(-c2csc(N3CCOCC3)n2)c(OCC(=O)NCCCCC(=O)N[C@H](C(=O)N2C[C@H](O)C[C@H]2C(=O)N[C@@H](C)c2ccc(-c3scnc3C)cc2)C(C)(C)C)c1C", "logD at 0.5 h", 5.02]
]}

A: Cc1ncsc1-c1ccc([C@H](C)NC(=O)[C@@H]2C[C@@H](O)CN2C(=O)[C@@H](NC(=O)CCCCCCOc2ccc3c(c2)c(C(=O)O)c(C)n3Cc2ccccc2)C(C)(C)C)cc1
B: Cc1ncsc1-c1ccc(CNC(=O)[C@@H]2C[C@@H](O)CN2C(=O)[C@@H](NC(=O)COCCOCCOCC(=O)N[C@H](C(=O)N2C[C@H](O)C[C@H]2C(=O)NCc2ccc(-c3scnc3C)cc2)C(C)(C)C)C(C)(C)C)cc1
Q: Field: entry with larger logD at 0.5 h (options A / B ). Give the label under which the chosen entry appears.
Ans: A
(A: 5, B: 3.19)

====

Test: Kinetic solubility of the compound incubated for 60 mins under shaking condition by UV-Vis spectroscopic analysis
Type: physicochemical
Conditions: 1 h, BLD = below limit of detection
reportedProperty: log(Kinetic_solubility)

{"columns": ["molecule", "log(Kinetic_solubility)"],
 "data": [
  ["N#Cc1ccc(O[C@H]2CC[C@H](NC(=O)c3ccc(N4CCC(CN5CCN(c6cc7c(cc6F)C(=O)N(C6CCC(=O)NC6=O)C7=O)CC5)CC4)nn3)CC2)cc1Cl (some centres undefined) [BAVDEGALUTAMIDE]", "Bld"],
  ["CCOC(=O)c1c(C)n(Cc2ccccc2)c2ccc(OCCCCCCCCCCC(=O)N[C@H](C(=O)N3C[C@H](O)C[C@H]3C(=O)N[C@@H](C)c3ccc(-c4scnc4C)cc3)C(C)(C)C)cc12", "Bld"],
  ["O=C(CCCCCCCCCCC(=O)N1CCN(C(=O)c2cc(Cc3n[nH]c(=O)c4ccccc34)ccc2F)CC1)NCCNc1cccc2c1C(=O)N(C1CCC(=O)NC1=O)C2=O (centres undefined)", "Bld"],
  ["COc1ccc2c(c1)c(CC(=O)NCCCCC(=O)N[C@H](C(=O)N1C[C@H](O)C[C@H]1C(=O)N[C@@H](C)c1ccc(-c3scnc3C)cc1)C(C)(C)C)c(C)n2C(=O)c1ccc(Cl)cc1", "Bld"]
]}

get_value(item= Cc1ncsc1-c1ccc([C@H](CC(=O)NCCCCCCCCCCC(=O)N[C@H]2C(C)(C)[C@H](Oc3ccc(C#N)c(Cl)c3)C2(C)C)NC(=O)[C@@H]2C[C@@H](O)CN2C(=O)[C@@H](NC(=O)C2(F)CC2)C(C)(C)C)cc1 , readout=log(Kinetic_solubility)) returns Bld

====

Assay: Kinetic solubility of the compound incubated for 60 mins under shaking condition by UHPLC-MS analysis
Format: physicochemical
Settings: 1 h
reportedProperty: log(Kinetic_solubility)

P: Cc1ncsc1-c1ccc([C@H](C)NC(=O)[C@@H]2C[C@@H](O)CN2C(=O)[C@@H](NC(=O)COCCOCCOCC(=O)N[C@H](C(=O)N2C[C@H](O)C[C@H]2C(=O)N[C@@H](C)c2ccc(-c3scnc3C)cc2)C(C)(C)C)C(C)(C)C)cc1
Q: Cc1ncsc1-c1ccc([C@H](C)NC(=O)[C@@H]2C[C@@H](O)CN2C(=O)[C@@H](NC(=O)CCCCCCCCCCC(=O)N2CCN(C(=O)c3cc(Cc4n[nH]c(=O)c5ccccc45)ccc3F)CC2)C(C)(C)C)cc1
Q: Select the item whose log(Kinetic_solubility) value is smaller, choosing between P and Q . Give the label under which the chosen entry appears.
Ans: Q
(Q: -7.21, P: -4.23)

====

Test: Kinetic solubility of the compound incubated for 60 mins under shaking condition by UHPLC-MS analysis
Assay type: physicochemical
Conditions: 1 h
reportedProperty: log(Kinetic_solubility)

Here is how some molecules turned out for log(Kinetic_solubility).
{"columns": ["molecule", "recordedValue"],
 "data": [
  ["Cn1c(=O)n(C)c2cc(CNCCCNCC3CCN(c4ccc(C(=O)N[C@H]5CC[C@H](Oc6ccc(C#N)c(Cl)c6)CC5)nn4)CC3)ccc21", -4.14],
  ["COc1ccc2c(c1)c(CC(=O)N1CCN(CCOCCOCC(=O)N[C@H](C(=O)N3C[C@H](O)C[C@H]3C(=O)N[C@@H](C)c3ccc(-c4scnc4C)cc3)C(C)(C)C)CC1)c(C)n2C(=O)c1ccc(Cl)cc1", -5.22],
  ["Cc1ncsc1-c1ccc([C@H](CC(=O)NCCCCCCNC(=O)COc2c(-c3csc(N4CCOCC4)n3)ccc(F)c2F)NC(=O)[C@@H]2C[C@@H](O)CN2C(=O)[C@@H](NC(=O)C2(F)CC2)C(C)(C)C)cc1", -5.14],
  ["COc1ccc2c(c1)c(CC(=O)NCCCCCCC(=O)N[C@H](C(=O)N1C[C@H](O)C[C@H]1C(=O)N[C@@H](C)c1ccc(-c3scnc3C)cc1)C(C)(C)C)c(C)n2C(=O)c1ccc(Cl)cc1", -7.34]
]}

1: COc1ccc2c(c1)c(CC(=O)N1CCN(CC(=O)N[C@H](C(=O)N3C[C@H](O)C[C@H]3C(=O)N[C@@H](C)c3ccc(-c4scnc4C)cc3)C(C)(C)C)CC1)c(C)n2C(=O)c1ccc(Cl)cc1
2: Cn1c(=O)n(C)c2cc(CNCCOCCNCC3CCN(c4ccc(C(=O)N[C@H]5CC[C@H](Oc6ccc(C#N)c(Cl)c6)CC5)nn4)CC3)ccc21
Q: Select the item whose log(Kinetic_solubility) value is smaller, choosing between 1 and 2 . Give the label under which the chosen entry appears.
Ans: 1
(1: -6.62, 2: -3.64)

a: COc1ccc2c(c1)c(CC(=O)NCCN1CCN(CCOCCOCC(=O)N[C@H](C(=O)N3C[C@H](O)C[C@H]3C(=O)N[C@@H](C)c3ccc(-c4scnc4C)cc3)C(C)(C)C)CC1)c(C)n2C(=O)c1ccc(Cl)cc1
b: O=C1CCC(N2C(=O)c3cccc(NCCOCCOCCOCCn4cc(COc5ccc(N(C(=O)CCl)C(C(=O)NCCc6ccccc6)c6cccs6)cc5Cl)nn4)c3C2=O)C(=O)N1 (stereo not drawn)
Q: Field: entry with larger log(Kinetic_solubility) (options a / b ). Give the label under which the chosen entry appears.
Ans: a
